Entries below carry reported MIC on Bacteroides fragilis GAI0675.
Measurement type: MIC

compound="COc1cc(-c2ccn3c(=O)c(C(=O)O)cc(C4CC4)c3c2C)cc2c1CNC2 [Example 18]" result="0.063 µg/mL"
compound="COc1c(-c2ccc3c(c2)CNC3C)ccn2c(=O)c(C(=O)O)cc(C3CC3)c12 (stereo not shown) [Example 4]" result="0.25 µg/mL"
compound="COc1c(-c2ccc3c(c2)CNC3)ccn2c(=O)c(C(=O)O)cc(C3CC3)c12 [Example 8]" result="0.25 µg/mL"
compound="CC1NCc2cc(-c3ccn4c(=O)c(C(=O)O)cc(C5CC5)c4c3OC(F)F)ccc21 (stereo not shown) [Example 10]" result="0.5 µg/mL"
